Test system: HCC-2998 colon
run description: NCI-60 one-dose screen, 48 h
run conditions: 10 µM unless noted
This is part of a sample that, as a whole, favours compounds with a hit. Of some 83,000 tested, about 20% had one in any assay. Calls of active or inactive are those of the source. How the source made its calls: active means growth percent below 10; inactive means the rest.
Pick one: active, inactive

Look over these answered cases.
query_smiles=Cc1cc(N2CCN(CC(=O)Nc3ccc4c(ccn4C)c3)CC2)nc(N2CCCCCC2)n1 answer_label=inactive
query_smiles=C=C(C)[C@@H]1CC[C@]2(CO)CC[C@]3(C)[C@H](CC[C@@H]4[C@@]5(C)CC[C@H](NCO)C(C)(C)[C@@H]5CC[C@]43C)[C@@H]12 answer_label=active
query_smiles=COc1ccc(-c2noc(C(=O)O)c2-c2cc(OC)c(OC)c(OC)c2)cc1 answer_label=inactive
query_smiles=O=S(=O)(NCCNc1nccc(-c2c(-c3ccc(F)c(O)c3)nc3occn23)n1)c1ccc(Cl)cc1 answer_label=inactive

Task: Give the logged outcome of this assay for the following molecule: OB1OCc2cc(/C=C/c3cccc(C(F)(F)F)c3)ccc21
Output: inactive

Task: In this assay, the call recorded for CC(C)c1ccc(C(=O)Nc2sc3c(c2C(N)=O)CCC(=O)C3)cc1 was what?
Output: inactive

Task: Would you mind telling me which call this test gave COc1ccccc1NC(=O)N=Nc1c(O)[nH]c2ccccc12 ?
Output: inactive

Task: Entry Cc1ccc(/C=C2\COc3ccc(O)cc3C2=O)cc1 : call = ?
Output: inactive

====

Test system: HS 578T breast
run description: NCI-60 one-dose screen, 48 h
run conditions: 10 µM unless noted
This is part of a sample that, as a whole, favours compounds with a hit. Of some 83,000 tested, about 20% had one in any assay. Calls of active or inactive are those of the source. Rule for the calls: active = growth percent below 10; inactive = the rest.
Use one of these outcomes when replying: true (1) (active), false (0) (inactive)

Some solved cases for reference:
molecule=Cc1ccc(NC(=O)Cn2cc(CN3CCN(c4ccnc5cc(Cl)ccc45)CC3)nn2)cc1 target_or_system="HS 578T breast" answer_label="false (0)"
molecule=CCN(CC)c1ccc(\C=N/N=C(N)/C(N)=N\N=C/c2ccc(N(CC)CC)cc2)cc1 target_or_system="HS 578T breast" answer_label="false (0)"

Note: attention shifts to another entry.
Task: Tell me the recorded outcome of this test for COc1ccc(C(=O)c2cc3c(N)c(C(=O)Nc4ccc(C)cc4)sc3nc2C)cc1 .
Output: true (1)

====

Test system: PC-3 prostate
run description: NCI-60 one-dose screen, 48 h (100 = growth as untreated, 0 = no growth, -100 = all killed)
run conditions: 10 µM unless noted
About 83,000 compounds went through this panel and 20% of them were active in at least one assay; those are over-represented in the sample as a whole.
value type: growth (%)
Give just the numeric value; % need not be written.

Here is how some molecules turned out for growth.
molecule=Cc1ccc(C[P+](c2ccccc2)(c2ccccc2)c2ccccc2)cc1 numeric_readout=4.25
molecule=Cn1c(I)c(C#CCO[Si](C)(C)C(C)(C)C)c(=O)[nH]c1=O numeric_readout=96.5
molecule="N#CSCC1CC(O)(c2ccccc2)CC(c2ccc(F)cc2)O1 (stereo unspecified)" numeric_readout=25.8
molecule="COC(CC(F)F)c1cn(S(=O)(=O)c2ccc(C)cc2)c2ccccc12 (stereo unspecified)" numeric_readout=21.3
molecule=CCCCC1=C(P(=O)(O)O)N[C@H](C(=O)O)CS1 numeric_readout=90

Task: For the molecule Cc1ccc(-c2nc(N3CCCNCC3)c3oc(-c4ccc(C)cc4)nc3n2)cc1 , give its measured growth value.
Output: -89.5
